- Tested on: strains of Prevotella bivia
- test.summary: MIC against anaerobes, agar dilution (CLSI), clinical isolates
- Assay type: cell-based
- condition.info: Prevotella bivia strain 8
result.type: MIC

// worked examples, MIC included
molecule: CN[C@H](CC(C)C)C(=O)N[C@H]1C(=O)N[C@@H](CC(N)=O)C(=O)N[C@H]2C(=O)N[C@H]3C(=O)N[C@H](C(=O)N[C@H](C(=O)O)c4cc(O)cc(O)c4-c4cc3ccc4O)[C@H](O)c3ccc(c(Cl)c3)Oc3cc2cc(c3O[C@@H]2O[C@H](CO)[C@@H](O)[C@H](O)[C@H]2O[C@H]2C[C@](C)(N)[C@H](O)[C@H](C)O2)Oc2ccc(cc2Cl)[C@H]1O [VAN, vancomycin, reference compound]
MIC: 16 to 64 µg/mL
//
molecule: Cc1ccc2ncc(=O)n(CCN[C@H]3CC[C@H]4[C@@H](C3)OC(=O)N4c3ccc4c(n3)NC(=O)CO4)c2c1 [Compound 27]
MIC: < 1 µg/mL
//
molecule: COc1ccc2ncc(=O)n(CCN[C@@H]3CC[C@@H]4[C@@H](C3)OC(=O)N4c3ccc4c(n3)NC(=O)CO4)c2c1 [Compound 21]
MIC: < 1 µg/mL

Prompt: // returns reported MIC for input Cc1ncc([N+](=O)[O-])n1CCO [MTZ, metronidazole, reference compound]
Completion: 1 to 4 µg/mL

====

- Test system: strains of Bacteroides fragilis
- test.summary: MIC against anaerobes, agar dilution (CLSI), clinical isolates
- Format: cell-based
- condition.info: Bacteroides fragilis strain 8
result.type: MIC

Below are worked cases with known answers.
compound: COc1ccc2ncc(=O)n(CCN[C@@H]3CC[C@@H]4[C@@H](C3)OC(=O)N4c3ccc4c(n3)NC(=O)CO4)c2c1
MIC: < 1 µg/mL
//
compound: Cc1ccc2ncc(=O)n(CCN[C@H]3CC[C@H]4[C@@H](C3)OC(=O)N4c3ccc4c(n3)NC(=O)CO4)c2c1
MIC: 1 to 4 µg/mL
//
compound: CN[C@H](CC(C)C)C(=O)N[C@H]1C(=O)N[C@@H](CC(N)=O)C(=O)N[C@H]2C(=O)N[C@H]3C(=O)N[C@H](C(=O)N[C@H](C(=O)O)c4cc(O)cc(O)c4-c4cc3ccc4O)[C@H](O)c3ccc(c(Cl)c3)Oc3cc2cc(c3O[C@@H]2O[C@H](CO)[C@@H](O)[C@H](O)[C@H]2O[C@H]2C[C@](C)(N)[C@H](O)[C@H](C)O2)Oc2ccc(cc2Cl)[C@H]1O [VAN, vancomycin, reference compound]
MIC: 16 to 64 µg/mL

Switching to the query record.
Prompt: Suppose we examine the compound Cc1ncc([N+](=O)[O-])n1CCO [MTZ, metronidazole, reference compound] ; what MIC value has been reported?
Completion: < 1 µg/mL

====

Entries annotated with measured MIC
- Tested on: Neisseria meningitidis ATCC 13090
- test.summary: MIC, broth microdilution (CLSI) versus planktonic bacteria
- Type: cell-based
- condition.info: ATCC13090, 16-20 h, mode of three independent experiments

Look over these answered cases.
molecule: N#Cc1cccc(-c2cccc(CN[C@H]3CC[C@H]4[C@@H](C3)OC(=O)N4c3ccc4c(n3)NC(=O)CO4)c2O)n1 [Compound 18]
MIC: < 1 µg/mL
//
molecule: COc1ccc2ccc(=O)n(CCN[C@H]3CC[C@H]4[C@@H](C3)OC(=O)N4c3ccc4c(n3)NC(=O)CO4)c2n1 [Compound 4]
MIC: < 1 µg/mL

Prompt: Return reported MIC; argument: COc1ccc2ccc(=O)n(CCN[C@@H]3CC[C@@H]4[C@@H](C3)OC(=O)N4c3ccc4c(n3)NC(=O)CO4)c2n1 [Compound 1]
Completion: < 1 µg/mL

Prompt: Which MIC value is on record for COc1ncc2ccc(=O)n(CCN[C@@H]3CC[C@@H]4[C@@H](C3)OC(=O)N4c3ccc4c(n3)NC(=O)CO4)c2n1 [Compound 2] ?
Completion: < 1 µg/mL

====

- Tested on: strains of Bacteroides fragilis
- test.summary: MIC against anaerobes, agar dilution (CLSI), clinical isolates
- Format: cell-based
- condition.info: Bacteroides fragilis strain 1
result.type: MIC

Below, 3 compounds whose answers are already recorded.
compound: CN[C@H](CC(C)C)C(=O)N[C@H]1C(=O)N[C@@H](CC(N)=O)C(=O)N[C@H]2C(=O)N[C@H]3C(=O)N[C@H](C(=O)N[C@H](C(=O)O)c4cc(O)cc(O)c4-c4cc3ccc4O)[C@H](O)c3ccc(c(Cl)c3)Oc3cc2cc(c3O[C@@H]2O[C@H](CO)[C@@H](O)[C@H](O)[C@H]2O[C@H]2C[C@](C)(N)[C@H](O)[C@H](C)O2)Oc2ccc(cc2Cl)[C@H]1O [VAN, vancomycin, reference compound]
system.name: strains of Bacteroides fragilis
result.type: MIC
experimental.value: 16 to 64 µg/mL

compound: Cc1ccc2ncc(=O)n(CCN[C@H]3CC[C@H]4[C@@H](C3)OC(=O)N4c3ccc4c(n3)NC(=O)CO4)c2c1
system.name: strains of Bacteroides fragilis
result.type: MIC
experimental.value: 16 to 64 µg/mL

compound: Cc1ncc([N+](=O)[O-])n1CCO [MTZ, metronidazole, reference compound]
system.name: strains of Bacteroides fragilis
result.type: MIC
experimental.value: < 1 µg/mL

Turning now to a further compound:
Prompt: Name the reported MIC value associated with the compound COc1ccc2ncc(=O)n(CCN[C@@H]3CC[C@@H]4[C@@H](C3)OC(=O)N4c3ccc4c(n3)NC(=O)CO4)c2c1
Completion: 1 to 4 µg/mL

====

- System: E. coli NCTC 13476
Reported MIC is given for each of the following molecules.

record.smiles: COc1ccc2ncc(=O)n(CCN[C@H]3CC[C@H]4[C@@H](C3)OC(=O)N4c3ccc4c(n3)NC(=O)CO4)c2c1
experimental.value: < 1 mg/L
--
record.smiles: COc1ccc2ccc(=O)n(CCN[C@@H]3CC[C@@H]4[C@@H](C3)OC(=O)N4c3ncc4c(n3)NC(=O)CO4)c2n1
experimental.value: 1 to 10 mg/L
--
record.smiles: O=C1COc2ccc(N3C(=O)O[C@@H]4C[C@H](NCCn5c(=O)cnc6cc(F)c(F)cc65)CC[C@H]43)nc2N1
experimental.value: < 1 mg/L
--
record.smiles: O=C1COc2ccc(N3C(=O)O[C@H]4C[C@@H](NCCCn5c(=O)ccc6ncc(OC(F)F)cc65)CC[C@@H]43)nc2N1
experimental.value: < 1 mg/L
--
record.smiles: N#Cc1cnc2ccc(=O)n(CCN[C@H]3CC[C@H]4[C@@H](C3)OC(=O)N4c3ccc4c(n3)NC(=O)CO4)c2c1
experimental.value: 1 to 10 mg/L
--
record.smiles: O=C1COc2ccc(N3C(=O)O[C@@H]4C[C@H](NCCn5c(=O)cnc6ccc(F)cc65)CC[C@H]43)nc2N1
experimental.value: < 1 mg/L
--
record.smiles: N#Cc1ccc2ccc(=O)n(CCN[C@@H]3CC[C@@H]4[C@@H](C3)OC(=O)N4c3ccc4c(n3)NC(=O)CO4)c2c1
experimental.value: < 1 mg/L
--
record.smiles: N#Cc1cnc2ccc(=O)n(CCN[C@H]3CC[C@H]4[C@H](C3)OC(=O)N4c3ccc4c(n3)NC(=O)CO4)c2c1
experimental.value: < 1 mg/L
--
record.smiles: N#Cc1ccc2ccc(=O)n(CCN[C@H]3CC[C@H]4[C@@H](C3)OC(=O)N4c3ccc4c(n3)NC(=O)CO4)c2c1
experimental.value: < 1 mg/L
--
record.smiles: COc1cnc2ccc(=O)n(CCN[C@@H]3CC[C@@H]4[C@@H](C3)OC(=O)N4c3ccc4c(n3)NC(=O)CO4)c2n1
experimental.value: < 1 mg/L

Prompt: What value of MIC has been recorded for this entry: COc1cnc2ccc(=O)n(CCCN[C@H]3CC[C@H]4[C@H](C3)OC(=O)N4c3ccc4c(n3)NC(=O)CO4)c2c1
Completion: < 1 mg/L

Prompt: # lookup: MIC of COc1cnc2ccc(=O)n(CCN[C@@H]3CC[C@@H]4[C@@H](C3)OC(=O)N4c3ccc4c(n3)NC(=O)CO4)c2c1
Completion: < 1 mg/L

Prompt: Param item = N#Cc1cccc(-c2cccc(CN[C@H]3CC[C@H]4[C@@H](C3)OC(=O)N4c3ccc4c(n3)NC(=O)CO4)c2O)n1 ; retrieve measured MIC.
Completion: 1 to 10 mg/L

====

A short record of MIC observed with E. coli NCTC 13476 follows.

Consider the reported MIC for these compounds:
compound: N#Cc1cccc(-c2cccc(CN[C@H]3CC[C@H]4[C@H](C3)OC(=O)N4c3ccc4c(n3)NC(=O)CO4)n2)c1
MIC: 1 to 10 µg/mL
//
compound: CN(CCn1c(=O)ccc2ccc(C#N)cc21)[C@H]1CC[C@H]2[C@@H](C1)OC(=O)N2c1ccc2c(n1)NC(=O)CO2
MIC: 1 to 10 µg/mL
//
compound: COc1cnc2ccc(=O)n(CCN[C@H]3CC[C@H]4[C@@H](C3)OC(=O)N4c3ccc4c(n3)NC(=O)CO4)c2c1
MIC: < 1 µg/mL
//
compound: C=CCOc1ccc2ccc(=O)n(CCN[C@H]3CC[C@H]4[C@H](C3)OC(=O)N4c3ccc4c(n3)NC(=O)CO4)c2c1
MIC: 1 to 10 µg/mL
//
compound: NCCOc1ccc2ccc(=O)n(CCN[C@@H]3CC[C@@H]4[C@@H](C3)OC(=O)N4c3ccc4c(n3)NC(=O)CO4)c2c1
MIC: 10 to 100 µg/mL

Prompt: Recall the recorded MIC for O=C1COc2ccc(N3C(=O)O[C@H]4C[C@@H](NCCn5c(=O)ccc6nccnc65)CC[C@@H]43)nc2N1 with E. coli NCTC 13476 and state it.
Completion: 1 to 10 µg/mL

Prompt: Observed MIC on E. coli NCTC 13476 for COc1cnnc(-c2cccc(CN[C@@H]3CC[C@@H]4[C@@H](C3)OC(=O)N4c3ccc4c(n3)NC(=O)CO4)c2O)c1 , please.
Completion: 1 to 10 µg/mL

Prompt: For E. coli NCTC 13476, provide MIC of COc1ccc2ccc(=O)n(CCN(CCO)[C@H]3CC[C@H]4[C@@H](C3)OC(=O)N4c3ccc4c(n3)NC(=O)CO4)c2n1 please.
Completion: 1 to 10 µg/mL

The reported measurements were obtained from patent US10487093B2.
